Listed next: entries and their corresponding inhibition.
# TARGET_OR_TEST_SYSTEM: Solute carrier family 2, facilitated glucose transporter member 1 (Homo sapiens)
# TEST_METHOD_NOTES: ST_JUDE_LEISH: Cytotoxicity at 2uM final concentration against transgenic Leishmania Mexicana promastigotes LmGLUT1 that are glucose transport deficient and complemented with the human glucose transporter GLUT1. Activity is measured by DNA content using SYBR green in vitro
# Type: functional

| COMPOUND | inhibition [%] |
| --- | --- |
| CCCCCCC1(C)N=C(N)N=C(N)C1c1ccc(Cl)c(Cl)c1 (stereo not given) | 1.71 |
| Cc1cccc2nc(-c3cccc(-c4cccc(NC(=O)Nc5ccc(Cl)c(Cl)c5)c4)c3)[nH]c12 | -0.37 |
| CS(=O)(=O)c1cccc2sc(N3CCN(C(=O)c4ccc([N+](=O)[O-])o4)CC3)nc12 | 35.6 |
| Cc1cc(Nc2ccc(C)c(Cl)c2)n2ncnc2n1 | -2.06 |
| O=C(Nc1cccc(Cl)c1Cl)NC1CCN(Cc2cccc(O)c2)CC1 | 3.63 |
| c1ccc(COc2ccccc2COc2ccccc2-c2ccc3cccnc3n2)cc1 | 0.28 |
| COc1ccc(OCC(=O)Nc2cc(-c3nc4ccccc4[nH]3)ccc2Cl)cc1 | 6.17 |
| O=C(NC1CCN(Cc2ccc(F)cc2)CC1)c1ccc(-c2cccc(C(F)(F)F)c2)s1 | 9.61 |
| CCCCCCn1c(Sc2ccc(C#N)c([N+](=O)[O-])c2)nnc1-c1ccc(N(C)C)cc1 | 17.6 |
| O=c1[nH]c2c(cc1CNC1CCCCC1)c(-c1ccc(F)cc1)nn2-c1ccccc1 | -1.4 |

Data provenance is ChEMBL document CHEMBL3433997.
